B1: tRNA (parent)
chain: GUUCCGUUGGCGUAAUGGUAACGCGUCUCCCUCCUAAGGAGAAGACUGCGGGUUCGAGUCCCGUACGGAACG

# Variants of: B1
# methodDescription: yeast fitness relative to wild type (ratio to wild type); higher = fitter; tRNA-Arg(CCU), competitive growth, 37 C, YPD
Fewer inactive variants are shown than the library holds.
Class true (1): yeast fitness at least 0.7. Class false (0): yeast fitness below 0.7.

U13A C29G C46G	false (0)

Say whether G6C G25A A70C shows yeast fitness of 0.7 or more.
false (0)

Queued: U7A A37C G51A G67A
false (0)

Queued: C30A G44A A45U C62U
false (0)

Queued: U2A G9C U16G U32G G52A G63C
false (0)

Queued: A14G C29G C33U
false (0)
